# assay.system: recombinant human Flag-tagged PARP7 (amino acids 456-657) (Homo sapiens)
# Construct: recombinant human Flag-tagged PARP7 (amino acids 456-657)
# Sequence (Q7Z3E1 456-657): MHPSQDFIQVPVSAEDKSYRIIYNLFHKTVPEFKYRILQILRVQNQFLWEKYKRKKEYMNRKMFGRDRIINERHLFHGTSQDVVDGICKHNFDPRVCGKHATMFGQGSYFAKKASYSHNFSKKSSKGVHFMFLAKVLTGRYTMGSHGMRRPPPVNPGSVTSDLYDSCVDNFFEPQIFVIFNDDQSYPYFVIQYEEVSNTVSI
# method: PARP7 biochemical DELFIA assay (auto-MARylation)
# test.context: DELFIA readout, IC50 class
pIC50: −log10 of the molar value.
Hi there, I'd appreciate the recorded pIC50 for every entry that follows.

Data request: What value of pIC50 has been reported for the following compound? CC(COCCC(=O)N1CCN(c2ccc(Cl)cn2)CC1)n1nc(C(F)(F)F)c2c(=O)[nH]ncc21 (stereo not drawn) [Compound 212]
Data returned: ≥ 7.00

Data request: What value of pIC50 has been reported for the following compound? N#Cc1ccc(N2CCN(C(=O)c3cccc(Cc4cccc5c(=O)[nH]c(=O)[nH]c45)c3)CC2)nc1 [Compound 18]
Data returned: 6.00 to 7.00

Data request: What value of pIC50 has been reported for the following compound? CC(COCC(=O)NC1CCN(c2ncc(C(F)(F)F)cn2)CC1)n1nc(C(F)(F)F)c2c(=O)[nH]ncc21 (single isomer, unassigned) [Compound 479]
Data returned: ≥ 7.00

Data request: What value of pIC50 has been reported for the following compound? CC1CN(C(=O)CCOCCN2C(=O)CCc3c2cn[nH]c3=O)CCN1c1ncc(C(F)(F)F)cn1 (stereo not drawn) [Compound 309]
Data returned: ≥ 7.00

Data request: What value of pIC50 has been reported for the following compound? CC(COCCn1cc(C(F)(F)F)c2c(=O)[nH]ncc21)C(=O)N1CCN(c2ncc(C(F)(F)F)cn2)CC1 (single isomer, unassigned) [Compound 411]
Data returned: ≥ 7.00

Data request: What value of pIC50 has been reported for the following compound? CC1CN(c2ncc(C(F)(F)F)cn2)CCN1C(=O)CCOCCn1nc(C(F)(F)F)c2c(=O)[nH]ncc21 (stereo not drawn) [Compound 161]
Data returned: ≥ 7.00

Just for reference, patent US20240217968A1 is where these values come from.
